Reference for the values: patent US20260297109A1

Items are presented alongside their recorded IC50.
# System Name: SAE (Homo sapiens)
# Construct: endogenous in cells; host or cells: HCT116
# Sequence (Q9UBT2 whole entry): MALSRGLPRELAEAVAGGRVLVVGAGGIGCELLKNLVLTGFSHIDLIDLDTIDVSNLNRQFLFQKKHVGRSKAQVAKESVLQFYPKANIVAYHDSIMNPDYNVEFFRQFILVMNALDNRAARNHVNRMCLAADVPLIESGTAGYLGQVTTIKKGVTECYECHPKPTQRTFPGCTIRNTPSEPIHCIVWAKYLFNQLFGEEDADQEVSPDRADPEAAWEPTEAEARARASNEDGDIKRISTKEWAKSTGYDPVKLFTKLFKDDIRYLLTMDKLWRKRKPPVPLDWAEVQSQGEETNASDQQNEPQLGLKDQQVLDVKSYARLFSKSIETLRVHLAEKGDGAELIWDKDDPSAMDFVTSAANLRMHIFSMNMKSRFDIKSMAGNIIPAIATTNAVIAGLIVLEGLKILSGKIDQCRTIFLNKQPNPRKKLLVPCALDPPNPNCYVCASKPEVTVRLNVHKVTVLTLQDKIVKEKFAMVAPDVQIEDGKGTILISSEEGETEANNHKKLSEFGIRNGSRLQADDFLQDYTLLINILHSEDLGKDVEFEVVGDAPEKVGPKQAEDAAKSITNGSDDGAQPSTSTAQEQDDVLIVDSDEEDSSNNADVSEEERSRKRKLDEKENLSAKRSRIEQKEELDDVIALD
# Sequence (Q9UBE0 whole entry, further chain): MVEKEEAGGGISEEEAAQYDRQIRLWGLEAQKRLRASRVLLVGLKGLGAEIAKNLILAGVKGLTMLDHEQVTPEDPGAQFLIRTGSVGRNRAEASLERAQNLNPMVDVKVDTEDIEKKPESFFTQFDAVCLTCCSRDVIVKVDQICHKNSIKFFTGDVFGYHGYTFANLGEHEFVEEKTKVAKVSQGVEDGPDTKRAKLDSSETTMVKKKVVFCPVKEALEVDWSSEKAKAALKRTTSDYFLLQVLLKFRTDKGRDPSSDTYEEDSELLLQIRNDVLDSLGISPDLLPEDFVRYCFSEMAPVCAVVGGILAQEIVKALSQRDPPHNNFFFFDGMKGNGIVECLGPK
# Experimental Protocol: SUMO IF: in vitro inhibitory activity assay against SAE in HCT116 cells (SUMO-2/3 immunofluorescence)
# Assay type: cell-based
# Experimental Context: class symbols, 6 h at 37° C.

Consider the following illustrative entries.
[
  {
    "Molecule": "NS(=O)(=O)OC[C@H]1[C@H](F)[C@@H](Nc2ncncc2C(=O)c2nc3c(s2)CSC[C@@]32NCCc3ccc(Cl)cc32)C[C@@H]1O",
    "Reported Result": "> 200 nM"
  },
  {
    "Molecule": "NS(=O)(=O)OC[C@H]1[C@H](F)[C@@H](Nc2ncncc2C(=O)c2cc3c(s2)CSC[C@@]32NCCc3ccc(Cl)nc32)C[C@@H]1O",
    "Reported Result": "> 200 nM"
  }
]

// lookup IC50 | system=SAE (Homo sapiens) | key= NS(=O)(=O)OC[C@H]1[C@H](F)[C@@H](Nc2ncncc2C(=O)c2cc3c(s2)CCC[C@@]32NCC3(CC3)c3ccc(Cl)cc32)C[C@@H]1O > 200 nM

State its IC50 on SAE (Homo sapiens): NS(=O)(=O)OC[C@H]1[C@H](F)[C@@H](Nc2ncncc2C(=O)c2cc3c(s2)COC[C@]32NCCc3c(Cl)cc(Cl)cc32)C[C@@H]1O 50 to 200 nM

Enter reported IC50 observed with SAE (Homo sapiens) for NS(=O)(=O)OC[C@H]1[C@H](F)[C@@H](Nc2ncncc2C(=O)c2cc3c(s2)CC[C@@]32OCCc3ccc(Cl)cc32)C[C@@H]1O > 200 nM
